- Protocol Notes: Human HepG2 cell viability assay in 384 well format
- Format: toxicity, cell-based
- Parameters: dose 125 nL, time 70.5 hour; concentration not given beside the values
- Test Settings: HepG2 cells, read-out: Inhibition
Assay Endpoint: cytotoxicity at 70.5 h (%)
State just the number; it will be interpreted in %.

Find the recorded cytotoxicity at 70.5 h belonging to COCCN1CCN(Cc2cccc(C(=O)N(C)C)c2)CC1C (stereo not drawn) and report it. 14.5

Find the recorded cytotoxicity at 70.5 h belonging to Cc1nn(CC(F)F)c2c1c(C(F)F)cc(=O)n2CC(=O)O and report it. 23.6

Find the recorded cytotoxicity at 70.5 h belonging to CCN1CCCc2cc(CN3CCc4nc(C)[nH]c(=O)c4C3)ccc21 and report it. -0.248
